Each entry below carries its reported kon.
ASSAYED_TARGET: T1, his-tagged-DLL3 antigen (purified human/cynomolgus/dog/mouse/rat or minipig DLL3 antigen) (human/cynomolgus/dog/mouse/rat or …)
T1 construct: Antigen loaded on nickel-NTA tips for biolayer interferometry; also called Delta-like protein 3
T1 sequence (Q9NYJ7 whole entry): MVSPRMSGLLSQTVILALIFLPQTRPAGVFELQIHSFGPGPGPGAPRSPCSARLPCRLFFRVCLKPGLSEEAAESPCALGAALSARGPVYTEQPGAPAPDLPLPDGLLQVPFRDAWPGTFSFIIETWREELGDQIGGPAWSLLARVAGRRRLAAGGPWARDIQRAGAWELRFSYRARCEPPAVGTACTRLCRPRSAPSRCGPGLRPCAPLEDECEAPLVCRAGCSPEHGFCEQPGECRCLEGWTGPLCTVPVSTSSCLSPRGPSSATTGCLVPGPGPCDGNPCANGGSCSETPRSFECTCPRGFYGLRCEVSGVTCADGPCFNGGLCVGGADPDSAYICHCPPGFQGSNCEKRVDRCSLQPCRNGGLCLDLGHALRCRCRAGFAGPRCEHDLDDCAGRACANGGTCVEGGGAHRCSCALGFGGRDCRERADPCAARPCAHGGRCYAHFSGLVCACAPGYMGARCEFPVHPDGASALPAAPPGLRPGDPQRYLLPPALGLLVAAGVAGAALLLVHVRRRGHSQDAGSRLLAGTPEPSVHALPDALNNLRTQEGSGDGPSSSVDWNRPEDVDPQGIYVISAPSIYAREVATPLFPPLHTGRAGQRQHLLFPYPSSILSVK
TEST_DETAILS: biolayer interferometry (Octet BLItz), his-tagged DLL3 on nickel-NTA tip, minibody in solution
Respond numerically; units are M⁻¹ s⁻¹ and should not be typed.

Recorded kon, per entry:
{"BINDER": "IAB57M2-6 (other, Signal peptide left out) QVQLVQSGAEVKKPGASVKVSCKASGYTFTNYGMNWVRQAPGQGLEWMGWINTYTGEPTYADDFKGRVTMTTDTSTSTAYMELRSLRSDDTAVYYCARIGDSSPSDYWGQGTLVTVSSGSTSGGGSGGGSGGGGSSEIVMTQSPATLSVSPGERATLSCKASQSVSNDVVWYQQKPGQAPRLLIYYASNRNTGIPARFSGSGSGTEFTLTISSLQSEDFAVYYCQQDYTSPWTFGQGTKLEIKEPKSSDKTHTCPPCPPCGGGSSGGGSGGQPREPQVYTLPPSREEMTKNQVSLTCLVKGFYPSDIAVEWESNGQPENNYKTTPPVLDSDGSFFLYSKLTVDKSRWQQGNVFSCSVMHEALHNHYTQKSLSLSPG", "kon / M⁻¹ s⁻¹": 785000}
{"BINDER": "IAB57M2-4 (other, Signal peptide left out) QVQLVQSGAEVKKPGASVKVSCKASGYTFTNYGMNWVRQAPGQGLEWMGWINTYTGEPTYADDFKGRVTMTTDTSTSTAYMELRSLRSDDTAVYYCARIGDSSPSDYWGQGTLVTVSSGSTSGGGSGGGSGGGGSSEIVMTQSPATLSVSPGERATLSCKASQSVSNDVVWYQQKPGQAPRLLIYDASNRYTGIPARFSGSGSGTEFTLTISSLQSEDFAVYYCQQDYTSPWTFGQGTKLEIKEPKSSDKTHTCPPCPPCGGGSSGGGSGGQPREPQVYTLPPSREEMTKNQVSLTCLVKGFYPSDIAVEWESNGQPENNYKTTPPVLDSDGSFFLYSKLTVDKSRWQQGNVFSCSVMHEALHNHYTQKSLSLSPG", "kon / M⁻¹ s⁻¹": 581000}

Shift focus to the following entry.
Look at this binder and give its reported kon. IAB57M2-2 (other, Parental minibody; Signal peptide left out; also called parental minibody IAB57M2-2) QVQLVQSGAEVKKPGASVKVSCKASGYTFTNYGMNWVRQAPGQGLEWMGWINTYTGEPTYADDFKGRVTMTTDTSTSTAYMELRSLRSDDTAVYYCARIGDSSPSDYWGQGTLVTVSSGSTSGGGSGGGSGGGGSSEIVMTQSPATLSVSPGERATLSCKASQSVSNDVVWYQQKPGQAPRLLIYYASNRYTGIPARFSGSGSGTEFTLTISSLQSEDFAVYYCQQDYTSPWTFGQGTKLEIKEPKSSDKTHTCPPCPPCGGGSSGGGSGGQPREPQVYTLPPSREEMTKNQVSLTCLVKGFYPSDIAVEWESNGQPENNYKTTPPVLDSDGSFFLYSKLTVDKSRWQQGNVFSCSVMHEALHNHYTQKSLSLSPG
698000
